# TARGET_OR_TEST_SYSTEM: hCRTH2 receptor (Homo sapiens, UniProt Q9Y5Y4)
# Construct: expressed in transfected cells; host or cells: HEK293
# Sequence (Q9Y5Y4 1-395): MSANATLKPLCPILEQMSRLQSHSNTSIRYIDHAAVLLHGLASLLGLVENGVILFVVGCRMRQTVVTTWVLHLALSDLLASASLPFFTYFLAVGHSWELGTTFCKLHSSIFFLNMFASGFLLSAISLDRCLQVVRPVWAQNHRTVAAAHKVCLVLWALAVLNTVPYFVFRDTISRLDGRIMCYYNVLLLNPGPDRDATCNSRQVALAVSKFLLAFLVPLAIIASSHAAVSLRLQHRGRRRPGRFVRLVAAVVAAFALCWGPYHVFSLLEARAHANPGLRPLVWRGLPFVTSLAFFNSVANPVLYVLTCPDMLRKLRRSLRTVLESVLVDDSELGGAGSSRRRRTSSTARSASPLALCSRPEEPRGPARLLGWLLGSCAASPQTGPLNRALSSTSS
# EXPERIMENT_DESCRIPTION: Radioligand displacement assay (3H-PGD2) on hCRTH2 receptor membranes
# Assay type: binding
# CONDITIONS: radioligand displacement (3H-PGD2), hCRTH2 receptor membranes; antagonistic activity
pIC50: −log10 of the molar value.
TEST_READOUT: pIC50

Examples with their reported pIC50 follow.
COMPOUND | TARGET_OR_TEST_SYSTEM | pIC50
O=C(OCc1ccccc1)N1CCc2ccccc2C1c1cc(Cl)ccc1OCc1nnn[nH]1 (stereo not drawn) | hCRTH2 receptor (Homo sapiens, UniProt Q9Y5Y4) | 6.45
O=C(O)COc1ccc(Cl)cc1[C@@H]1c2ccccc2CCN1C(=O)[C@@H]1C[C@H]1c1cccc(Cl)c1 | hCRTH2 receptor (Homo sapiens, UniProt Q9Y5Y4) | 8.37
O=C(OCc1ccccc1)N1CCc2ccccc2[C@H]1c1cc(Cl)ccc1OCc1n[nH]c(=O)o1 | hCRTH2 receptor (Homo sapiens, UniProt Q9Y5Y4) | 7.26

[a] O=C(O)COc1ccc(Cl)cc1[C@@H]1c2ccccc2CCN1C(=O)[C@H]1C[C@@H]1c1ccccc1C(F)(F)F
[b] O=C(OCc1ccccc1)N1CCc2ccccc2C1c1cc(Cl)ccc1OCc1cc(O)no1 (racemic)
Problem: Sort a and b by pIC50 descending and give the first. Refer to your chosen entry by its label in the reply.
Solution: b
(b: 7.82, a: 6.58)

---

# TARGET_OR_TEST_SYSTEM: hCRTH2 receptor (Homo sapiens, UniProt Q9Y5Y4)
# Construct: expressed in transfected cells; host or cells: HEK293
# EXPERIMENT_DESCRIPTION: Radioligand displacement assay (3H-PGD2) on hCRTH2 receptor membranes
# Format: binding
# CONDITIONS: antagonistic activity, 3H-PGD2 radioligand displacement, HEK293-hCRTH2 membranes
TEST_READOUT: IC50 (nM)

[1] CCCCNC(=O)N1CCc2ccccc2C1c1cc(Cl)ccc1OCC(=O)O (racemic)
[2] Cc1nn(CCC(=O)N2Cc3ccccc3C2c2cc(Cl)ccc2OCC(=O)O)c2cccc(Cl)c12 (single isomer, unassigned) [Example 539]
[3] Cc1cn(CCC(=O)N2CCc3ccccc3C2c2cc(Cl)ccc2OCC(=O)O)c2ccccc12 (racemic)
Problem: I'd appreciate it if you sorted the entries above by their IC50, lowest to highest. Provide the labels, sequenced as the question asks.
Solution: 3, 1, 2
